assay: Solubility test of compound (a) with and without solubilizers (Experimental Example 1; HPLC of filtrate); details: phosphate buffer, pH 6.5, aqueous buffer, Solubility of Compound (a), Caffeine 5 mg/ml; pH 6.5, 25° C., 48 hours

{"COMPOUND": "CC(C)c1ccc2oc3nc(N)c(C(=O)O)cc3c(=O)c2c1 [Compound (a)]", "solubility at 48 h [µg/mL]": 1500}

----------
assay: Stability test of compound (a) in solution, remaining ratio at 60° C. (Experimental Example 2); assay type: physicochemical; details: phosphate buffer, pH 7.5, compound (a) 2.5 mg/ml; PVP (MW 40,000) 50 mg/ml; pH 7.5±0.1; 60° C. after 2 weeks
MEASUREMENT_TYPE: remaining at 336 h (%)

{"COMPOUND": "CC(C)c1ccc2oc3nc(N)c(C(=O)O)cc3c(=O)c2c1 [Compound (a)]", "MEAS_VALUE": 99.5}

----------
test: Solubility test of compound (a) with and without solubilizers (Experimental Example 1; HPLC of filtrate); conditions: phosphate buffer, pH 6.5, aqueous buffer, Solubility of Compound (a), Caffeine 10 mg/ml; pH 6.5, 25° C., 48 hours

{"COMPOUND": "CC(C)c1ccc2oc3nc(N)c(C(=O)O)cc3c(=O)c2c1 [Compound (a)]", "solubility at 48 h": "2670 µg/mL"}

----------
test: Solubility test of compound (a) with and without solubilizers (Experimental Example 1; HPLC of filtrate); conditions: phosphate buffer, pH 6, aqueous buffer, Solubility of Compound (a), Tween 80 10 mg/ml; pH 6.0, 25° C., 48 hours
MEASUREMENT_TYPE: solubility at 48 h (µg/mL)

{"CHEMICAL_SMILES": "CC(C)c1ccc2oc3nc(N)c(C(=O)O)cc3c(=O)c2c1", "MEAS_VALUE": 80}

----------
Experiment: Solubility test of compound (a) with and without solubilizers (Experimental Example 1; HPLC of filtrate)
Conditions: phosphate buffer, pH 7.5, aqueous buffer, Solubility of Compound (a), Caffeine 10 mg/ml; pH 7.5, 25° C., 48 hours
Description: Solubility tests of the compound (a) (2-amino-7-isopropyl-5-oxo-5H-[1]-benzopyrano[2,3-b]pyridine-3-carboxylic acid) employing the solubilizers of this invention and, for comparison, employing various conventional solubilizers were performed. The solubility was measured by the following manner: […]

{"COMPOUND": "CC(C)c1ccc2oc3nc(N)c(C(=O)O)cc3c(=O)c2c1 [Compound (a)]", "SCALE_UNIT": "µg/mL", "solubility at 48 h": 9210}

----------
experiment: Stability test of compound (a) in solution, remaining ratio at 60° C. (Experimental Example 2); assay type: physicochemical; details: phosphate buffer, pH 7.5, compound (a) 1.0 mg/ml; PVP (MW 40,000) 20 mg/ml; pH 7.5±0.1; 60° C. after 8 weeks

{"CHEMICAL_SMILES": "CC(C)c1ccc2oc3nc(N)c(C(=O)O)cc3c(=O)c2c1", "remaining at 1344 h": "98.1%"}
